Test system: parent strain (SAWy518)
Field: Offscreen_18hr. Provide a value for each of the compounds that follow.
Answers are plain numbers.

Known results for compounds:
Oc1c(Cl)cc(Cl)c2cccnc12 [Capitrol] :: 0.0472
O=c1c(O)c(-c2ccc(O)c(O)c2)oc2cc(O)cc(O)c12 [Quercetin, reference compound] :: 0.7753
CC(C(=O)O)c1ccc2c(c1)[nH]c1ccc(Cl)cc12 (stereo not drawn) [CARPROFEN] :: 0.7281
O=C(O)c1ccc(-n2nc(-c3ccccc3O)nc2-c2ccccc2O)cc1 [Deferasirox] :: 0.7745
COc1ncc(-c2ccc3nccc(-c4ccnnc4)c3c2)cc1NS(=O)(=O)c1ccc(F)cc1F [GSK2126458] :: 0.7275
O=C(CCc1ccc(O)cc1)c1c(O)cc(O)cc1O [Phloretin] :: 0.762
Nc1c2ccccc2nc2ccccc12 [AMINACRINE] :: 0.3466
CC(C)N(CCC(=O)c1ccc2ccccc2c1)Cc1ccccc1.Cl [ZM 39923 HCl] :: 0.0402

Please look at the following compound next.
## Task I am curious: what Offscreen_18hr value has been reported for Nc1ccc(-c2nc3ccc(-c4nc5cc(N)ccc5[nH]4)cc3[nH]2)cc1 [Ro 90-7501] ?
## Result 0.6647

These data points were gathered from paper PMC11637378.
